Assay: soluble on expression in E. coli; label from the status in PepcDB or PDB records
VALUE TYPE: soluble on expression in E. coli

Worked cases, answers included:
MATEIDINRIQKDIFIEHKGEPYRVLDYEHVKPGKGQAFVRVKAKNMLTGNVTELTFKASDRIPLADFEQVYATYSYNDGENYYFMNTQTYDMIAVPKEKIEEEAKFLKEGMEVIVFLYKGQPIGIELPKHVELQVVETEPAFKGDTQAGGTKPAKLETGAVIQVPFFVKEGDIVKVDTRTGSYVERVKEAK = soluble
MIKPLTSSQEEVLKALNDDKYQIVGVFGPTGTGKTLLTLSYGIDVIKQGKFKKFIIVKPIVDIVTKKEITATELPNYHEVILSYIKDVLGPEYSATVDELYKSGRIEILDSRLLRGRTFDDSIIFIDEVQELQPESIIELIIRIGRNSKLVVAGDPVFQSLQMKTFKDPSELVREVLLNEEDAKVIDLGVKDIIRAGAKRGLRLLIEYRLRSRILSEEENKVLNVTKAHAPDADIITVVDLSEEKKKLGLDNLTTVPDSIIVVKEGNIGRLVGKGGERINSTEKEIGKKLRALELSLDFKEYIRAVHPLPWVVKHIEDADFKGNELVVQIKKETGAFMGQKGSYVRFVDEAIRKLLGVGIRVIAKENENS = soluble
MPRKRSVALAAWGEEGLLLVLRPQDDPEFPGAWGLPAVSLQGEETLEEAALRVAREKLGAEVAEAGPIAFGVEERPGYTLELWVYEGRLLGRPRLPEPKPGKTYYAAFRFGRPEELKAAARQGSLCSRLFLAVKGLCP = soluble
MHEQLNSRVETCYLQAETFFKRTFKRPVVSFQLRGQKAGVAHLHENLLRFNPQLYQENAEDFLRQTVPHEVAHLVAHQLFGGGIQPHGEEWQLIMRGVYELPPNRCHTYAVQRRSVIRYIYRCPCPDSDFPFTSQRHSMVRKGRRYLCRRCREPLMFSGETRTELEHHHHHH = not soluble
MARLTVHTLETAPEAAKARVEAVLQNNGFIPNLIGVLSNAPEALAFYQEVGKLNAANSLTAGEVEVIQIIAARTNQCGFCVAGHTKLATLKKLLSEQSVKAARALAAGEFDDAKLGALAAFTQAVMAKKGAVSDEELKAFFDAGYNQQQAVEVVMGVALATLCNYVNNLGQTEINPELQAYA = soluble
MMLAGCGPIEPDYPNNKYTLTWYCTSDDGTCERVVELRRYDRASIQNNDLTIWDSQDPGGAIEALIVYSDSLPQHCDRIFYLVFFGHEIEEPRYCGNHYAFEIELSIPDEDPATSSRWVISAAPLD = not soluble

Data request, read-out soluble on expression in E. coli, for `MGSDKIHHHHHHMKAYYHLPGLFEFYELYKEFLPLYRKHREYFYDWCDIGSIYGAPADCIWGGGRVGFGEHDLKEVLKLMQEYGISARLTFSNSLLTKEHLPDKKCNELCRIFDIGRDNERSRGFGNGIIIYSDILLDYIKENYPDFYFVSSTTKVLTDFSEFKNELNREEFRYVVPDFRLNKSFDNLKALSQHQKEKVEFLCNECCWFGCTDRKKCYETVSRKNLGVDCPEHYCVAPDSGQGYLFSKAMENPGFIGVYDIKNTYLPMGFSNFKIEGRGLGSAMILEFLLYYMTKPQYQIHVREHIYLDNMLDLF`
not soluble

Data request, read-out soluble on expression in E. coli, for `MASLRDIKAKINSTKKTSQITKAMEMVSASKLNRAEQNAKSFVPYMEKIQEVVASIAQGSKGINHPMLNARPVKRTGYIVITSDRGLAGGYNSNVLRTVSNVIRERHNMDSNQYSIIVLGRLGRDYLKRRGFNIIDEVVGLSDHPSFTDIKDLASRAIAMFADGAYDELYIYYNHYVSKISQEVTENKILPLTDVASDKPTTAYEFEPSEEEILKVLLPQYAESLVYGALLDGKASEHAARMTAMKSATDNAMEVIDSLTLSFNRARQAAITQEITEIVGGAAALE`
not soluble

Data request, read-out soluble on expression in E. coli, for `MRSVTLPLLMFCLGLAACSGDGGRRPSTCEVISPPDVMVPTEQNRQRVEQQSSGDPTAGQKPVECP`
not soluble

Data request, read-out soluble on expression in E. coli, for `MGSDKIHHHHHHMTAPLKSLFLLDPSVTYLNHGAYGATPRPVFERHVQWQYELEREPVDFLSRRFAERMAQARAILAEYVDTERDNLVYVSNGTTGVNIVARSLPLGPGDELLTTDHEHGGIERLWRFTAQKRGFEIVRHKVSLPVTTHARFVEDFWRDVTPRTRAILISQLTSPTALVFPVAAICARARARGILTIVDGSHVPGQLPLSLREMDPDFYVGILHKWVCAPKGSAFLYARPDVQPLVEPLVVSWGWEPKNPGPSKFVEYHEWQGSRDISAFLSVPSAIAFQREHDWDGVRKRCIALASDAQREVAALTREPLYHPPGAHEWHGQMVCAQLPPQTDDIALLARLRNECGIDVSVDRFGGRPRIRVSIQGYNGPDDVDRLLGSLKQLLRL`
not soluble
